- SYSTEM NAME: 5HT2B receptors (Homo sapiens, UniProt P41595)
- Construct: expressed in transfected cells; host or cells: CHO-K1 cells
- Sequence (P41595 whole entry): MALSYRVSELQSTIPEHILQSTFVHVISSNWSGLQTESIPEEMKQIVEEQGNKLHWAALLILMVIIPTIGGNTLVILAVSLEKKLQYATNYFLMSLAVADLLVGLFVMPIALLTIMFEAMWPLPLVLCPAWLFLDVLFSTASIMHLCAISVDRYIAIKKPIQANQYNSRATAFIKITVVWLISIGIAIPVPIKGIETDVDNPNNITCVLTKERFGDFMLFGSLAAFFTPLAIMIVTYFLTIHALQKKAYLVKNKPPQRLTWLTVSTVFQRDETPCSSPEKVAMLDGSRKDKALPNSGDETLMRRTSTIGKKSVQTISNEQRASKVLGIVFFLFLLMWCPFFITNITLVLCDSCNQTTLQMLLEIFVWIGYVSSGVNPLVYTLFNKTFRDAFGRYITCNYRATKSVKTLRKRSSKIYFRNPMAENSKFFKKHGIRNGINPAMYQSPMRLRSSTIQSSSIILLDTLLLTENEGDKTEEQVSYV
- TEST PROTOCOL: Human 5-HT2B functional assay in CHO-K1 cells (calcium flux, FLIPR)
- Type: cell-based
- ASSAY SETUP: CHO-K1 cells over-expressing 5HT2B, calcium flux; read-out: EC50 (μM), 5-HT2B Agonist Activity
Collected EC50 values appear next to each entry.

Example compounds with recorded EC50:
INSERT INTO results (compound, test_readout, recorded_value) VALUES
  ('CC(C)=Cc1ccc2c(c1)N1CCNC[C@@H]1CCO2', 'EC50', '0.1 µM'),
  ('O=C1CC2CNCCN2c2cc(COc3cccc(F)c3)ccc2N1 (stereo not drawn)', 'EC50', '0.4 µM'),
  ('COc1ccc(-c2ccc3c(c2)N2CCNC[C@@H]2CCO3)cc1', 'EC50', '> 10 µM'),
  ('Cc1cccc2c1OCC[C@H]1CN(CCF)CCN21', 'EC50', '> 10 µM'),
  ('O=C1CC2CNCCN2c2cc(/C=C/c3ccccc3C(F)(F)F)ccc2N1 (stereo not drawn)', 'EC50', '> 10 µM'),
  ('CC(C)Oc1cccc(-c2ccc3c(c2)N2CCNC[C@@H]2CC(=O)N3)c1', 'EC50', '> 10 µM');

Fill in: EC50 on 5HT2B receptors (Homo sapiens, UniProt P41595), entry CC(O)c1ccc(-c2ccc3c(c2)OCC[C@H]2CNCCN32)cc1 (stereo partly drawn)
> 10 µM

Fill in: EC50 on 5HT2B receptors (Homo sapiens, UniProt P41595), entry O=C1CC2CNCCN2c2cc(OCc3ccccc3)ccc2N1 (stereo not drawn)
1 µM

Fill in: EC50 on 5HT2B receptors (Homo sapiens, UniProt P41595), entry `CS(=O)(=O)c1ccc(-c2ccc3c(c2)OCC[C@H]2CNCCN32)cc1`
> 10 µM

====

- SYSTEM NAME: 5HT2B receptors (Homo sapiens, UniProt P41595)
- Construct: expressed in transfected cells; host or cells: CHO-K1 cells
- TEST PROTOCOL: Human 5-HT2B functional assay in CHO-K1 cells (calcium flux, FLIPR)
- Format: cell-based
- ASSAY SETUP: CHO-K1 cells; percentage relative to the effect of serotonin; read-out: Emax (%), 5-HT2B Agonist Activity
TEST READOUT: Emax (%)

INSERT INTO measurements (molecule, recorded_value) VALUES
  ('O=C1CC2CNCCN2c2cc(-c3ccoc3)ccc2N1 (stereo not drawn)', 80);

(P) CC(O)c1ccc(-c2cccc3c2OCC[C@H]2CNCCN32)cc1 (stereo partly drawn)
(Q) O=C1CC2CNCCN2c2cc(/C=C/c3cc(F)cc(F)c3)ccc2N1 (stereo not drawn)
Parameter metric = Emax. Return the lower-valued option from P and Q . Refer to your chosen item by its label in the answer.
P
(P: 10%, Q: 60%)

(P) Fc1ccc(-c2ccc3c(c2)N2CCNC[C@@H]2CCO3)cc1
(Q) CN1C(=O)CC2CNCCN2c2cc(CCc3ccccc3)ccc21 (stereo not drawn)
(R) Fc1ccccc1-c1ccc2c(c1)N1CCNC[C@@H]1CCO2
// ranking: key=Emax, reverse=True Lab note: final answer is the ordered label list.
Q, R, P

(I) CC(=O)c1ccc(-c2ccc3c(c2)N2CCNC[C@@H]2CCO3)cc1
(II) O=C1C[C@H]2CNCCN2c2cc(-c3ccccc3F)ccc2N1
(III) O=C1CC2CNCCN2c2cc(-c3ccccc3-c3ccccc3)ccc2N1 (stereo not drawn)
Rank items: key Emax, increasing. Lab note: final answer is the ordered label list.
I, III, II

====

- SYSTEM NAME: 5HT2C receptors (Homo sapiens)
- Sequence (P28335 33-458): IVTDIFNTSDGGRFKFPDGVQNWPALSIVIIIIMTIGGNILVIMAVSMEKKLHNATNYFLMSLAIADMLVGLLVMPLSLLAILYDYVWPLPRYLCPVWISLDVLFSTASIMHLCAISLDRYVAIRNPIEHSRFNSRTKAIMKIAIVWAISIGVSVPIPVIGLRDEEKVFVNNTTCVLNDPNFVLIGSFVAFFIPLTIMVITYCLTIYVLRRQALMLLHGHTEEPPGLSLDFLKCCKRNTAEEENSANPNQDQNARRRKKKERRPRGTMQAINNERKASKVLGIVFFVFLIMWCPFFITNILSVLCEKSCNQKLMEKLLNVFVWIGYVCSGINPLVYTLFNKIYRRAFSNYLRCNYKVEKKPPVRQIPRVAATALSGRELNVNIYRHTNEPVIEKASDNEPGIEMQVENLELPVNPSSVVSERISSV
- TEST PROTOCOL: Human 5-HT2C functional assay in CHO-K1 cells (calcium flux, FLIPR)
- Format: cell-based
- Set-up: expressed in transfected cells; host or cells: CHO-K1 cells
TEST READOUT: pEC50
Remember, pEC50 is on a log scale: it is -log10 of the molar concentration.

Example compounds with recorded pEC50:
INSERT INTO results (compound, test_readout, recorded_value) VALUES
  ('O=C1NCC2CNCCN2c2ccccc21 (stereo not drawn)', 'pEC50', 8.10),
  ('O=C1C[C@H]2CNCCN2c2cc(Cl)ccc2N1', 'pEC50', 9.10),
  ('COc1ccc2c(c1)N1CCNC[C@@H]1CC(=O)N2', 'pEC50', 8.00),
  ('Fc1cccc2c1N1CCNC[C@@H]1CCO2', 'pEC50', 8.30),
  ('CN1CCN2c3ccccc3OCC[C@@H]2C1', 'pEC50', 8.00);

Attention now shifts to the item below.
For `Cc1cccc2c1OCC[C@H]1CNCCN21` , write its pEC50.
9.10

====

- SYSTEM NAME: 5HT2C receptors (Homo sapiens, UniProt P28335)
- TEST PROTOCOL: Human 5-HT2C functional assay in CHO-K1 cells (calcium flux, FLIPR)
- Type: cell-based
- Parameters: expressed in transfected cells; host or cells: CHO-K1 cells
TEST READOUT: EC50 (nM)
Record the value in nM, omitting the unit from your answer.

INSERT INTO measurements (compound, system_name, test_readout, recorded_value) VALUES
  ('Clc1ccc2c(c1)OCC[C@@H]1CNCCN21 [Example 260]', '5HT2C receptors (Homo sapiens, UniProt P28335)', 'EC50', 0.3),
  ('Cc1ccc2c(c1)N1CCNC[C@@H]1CC(=O)N2 [Example 36]', '5HT2C receptors (Homo sapiens, UniProt P28335)', 'EC50', 2),
  ('Cc1c(F)ccc2c1OCC[C@H]1CNCCN21 [Example 244]', '5HT2C receptors (Homo sapiens, UniProt P28335)', 'EC50', 0.4);

Fill in: EC50 on 5HT2C receptors (Homo sapiens, UniProt P28335), entry O=C1CC2CNCCN2c2cccc(F)c2N1 (stereo not drawn) [Example 32]
8

Fill in: EC50 on 5HT2C receptors (Homo sapiens, UniProt P28335), entry Cc1ccc2c(c1)NC(=O)CC1CNCCN21 (stereo not drawn) [Example 49]
60

Fill in: EC50 on 5HT2C receptors (Homo sapiens, UniProt P28335), entry COc1ccc2c(c1)OCC[C@H]1CNCCN21 [Example 243]
50

====

Collected Emax values appear next to each entry.
- SYSTEM NAME: 5HT2C receptors (Homo sapiens, UniProt P28335)
- Sequence (P28335 33-458): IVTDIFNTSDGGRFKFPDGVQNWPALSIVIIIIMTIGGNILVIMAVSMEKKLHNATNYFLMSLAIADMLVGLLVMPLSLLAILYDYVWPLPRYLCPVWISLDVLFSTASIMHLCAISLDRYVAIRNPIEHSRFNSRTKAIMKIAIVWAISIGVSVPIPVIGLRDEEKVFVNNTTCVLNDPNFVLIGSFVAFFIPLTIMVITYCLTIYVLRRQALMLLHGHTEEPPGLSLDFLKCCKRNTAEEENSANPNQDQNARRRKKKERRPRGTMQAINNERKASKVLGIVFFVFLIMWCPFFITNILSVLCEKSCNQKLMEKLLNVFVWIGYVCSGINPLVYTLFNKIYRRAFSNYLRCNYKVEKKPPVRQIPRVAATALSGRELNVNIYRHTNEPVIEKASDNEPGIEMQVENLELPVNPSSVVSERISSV
- TEST PROTOCOL: Human 5-HT2C functional assay in CHO-K1 cells (calcium flux, FLIPR)
- Type: cell-based
- Parameters: expressed in transfected cells; host or cells: CHO-K1 cells
- ASSAY SETUP: CHO-K1 cells; percentage relative to the effect of serotonin; read-out: Emax (%), 5-HT2c Agonist Activity
- Method: (iii) Human 5-HT2C and 5-HT2B Functional Assay in CHO-K1 Cells […] Fluorescence measurements were read at 25° C. at an excitation wavelength of 480 nm and an emission wavelength of 530 nm in FLIPR (MDS). Baseline fluorescence was measured for the first 10 seconds and then 15 μL of 4× concentrations of serotonin/test compounds was added to the cell plate. The fluorescence intensity was captured every second for the first 1 minute followed by every 5 seconds for an additional 2 minutes. […]

For Oc1cccc(-c2ccc3c(c2)N2CCNC[C@@H]2CCO3)c1 [Example 201] , write its Emax.
> 120%

For CN1C(=O)CC2CNCCN2c2cc(CCc3ccccc3)ccc21 (stereo not drawn) [Example 151] , write its Emax.
110%

For O=C1CC2CNCCN2c2cc(OCc3ccccc3)ccc2N1 (stereo not drawn) [Example 149] , write its Emax.
> 120%
